# method summary: protease stability score; higher = more stable; yeast display proteolysis, trypsin and chymotrypsin;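 note: log10 excess protease needed over predicted unfolded state with 0 meaning unfolded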
Kind request: treat 0.02 as inclusive, so protease stability score at 0.02 or higher is Y, anything lower is N.

{"entry sequence": "DEEDLKRLAETFADALQRNDPSQLNKMIDPNAKVQYGEKTFHGREKLHEWAHEMKKQADHFEIRSITVEGESVVIDLRMIVNGHERRLNLTMHLKNGRIQHLRADSR", "assigned category": "Y"}
{"entry sequence": "DEENRHAAEQYLTALRTGDEEQLKKNADPNVRVQVGDKQWTGMERYAHDQVRQLKEIHIEIKVDDIKVSNGEVDMKAERNSNHNGKPSRNRASLTIVVHNGKIQEIHWQEDS", "assigned category": "N"}
{"entry sequence": "DEKKVEQAEQWIRNLQTGDPDKANDMFDPNAEITVGDHVVHGREEFKDRMEKDMRNMRIKFEDVHASVKNGRVTVSVDQVDTNNGKPKRYRYNLTIDLRNGKVTEIVNKEDK", "assigned category": "Y"}
{"entry sequence": "DEDEKTKLAEQAKDILQEGNFHEMMHLADENAKVVYGDRRYDGREKVHKVLRDFDDRVDKIDVKRVRVENGRAKIVADVEHDGQRTTVIIHIQAHNGKIRRIRFHTP", "assigned category": "Y"}
{"entry sequence": "DEEDVKTLMNLMRNNNFEDLQRMADPNAKVIVGDQTYQGQKEVRTFLHKLKDQIDHLDIKSLDYHNGRVVLDVEATVNGQRFRYVLTVDVHNGHVKSVRFQARSEKDERILKEQAS", "assigned category": "Y"}
{"entry sequence": "EDTALKIARTLFDILESNNPDEFNKLADPNARVDVGDKKIHGREEIKKQMETEIQQLRVHYEIKRYDSRPNRAHVIADVEVNHNGQPQSHKLVMRLHFKNGKVTEIKFEYRK", "assigned category": "N"}
{"entry sequence": "DEKRYEELVKKAFDVIRNGNEEEMRKLGKPDVEYKYADKEFEGEEAMQTMVQVVKRIGAKVEIQHEEVHGDTAHAVFVYKKGNRTAQTTVKVVYEGDKLKKAEVKMTDEVRKVLHDG", "assigned category": "N"}
{"entry sequence": "DEDKARRVMEKLFKIVKNGNKDEMKKMGKPNVQYTYVDKRYEGEEAAKKDVEIDKEVGARVQERELEVKGDTVKAVFQYQQGDTTVQTHVEAHYEGDKVKEVKVELTEEVQKIVEQG", "assigned category": "N"}
{"entry sequence": "DTERNAKEAVTRLKKVFTHNDPDKIASMFDENAHIEVGDKRYHGHEEVKRWADDMRNQYDHWDADVRSIDVHGDKVHVEAVITAERNGKTLERTFVVIFDRDNGQLRIHELRDQ", "assigned category": "Y"}
{"entry sequence": "DDQRLRELNDTIAENIQSGDESKLSQLADPNVRLQIGDKEWHGREEMQKAWDELRRSADHIEIRSITAKGDHAVINAVLHHNGRTSQVRFDFSFHNGRIVRVSMHET", "assigned category": "Y"}
{"entry sequence": "DRNRRAEEFARTQLKAFKHGDEKLLRDLFDPNVHISVGDQTVHGRDEVARQEKDQATQVDHATRKIDRVEMNGDQVEVRARIRLNFNGQDRSTDVVYHATDDNGHIVVKSVRQG", "assigned category": "N"}
{"entry sequence": "DERKSAENFFHTLVKVMETGDEDKARKMFDENADAEVGDTEYHGREQLSKYMMTLVKNIDHIRLDLRDMHIEGDKIDIHADVEYRVNGQRTTNKLTVDVEIDNGRNKAQDIKFK", "assigned category": "Y"}
{"entry sequence": "DDDNKRVVERFLRAQQEGDPDTAKENADENAHFHYGDRRITGRESYAEWMERRKKESRVEFRIDQMNVSGDRIDVHFQMQVRHNGRPERFEARMVIKITNGHIVQVRVEKKE", "assigned category": "Y"}
{"entry sequence": "DEENEQLFNEFLKAMEHGDPNRLNQLMDPDVHIRVGDKQIHGREEAAREIVRQMKEQNRHIDSIEVSAENGELTVNVEMFQTHDGKPKKYTYRAKIVFENGKIKHIDRKHSQ", "assigned category": "Y"}
{"entry sequence": "DERIRKEHTKRLKAEQTGDPKSAHDMADENVRVKVGDKDLTGMDNIVKTIHEEKKDQRNQLDVHSIELHGEKVKIEMQVVIEHNGRPHKTEQYLVFRADNGKLKRMEQHDSG", "assigned category": "Y"}
{"entry sequence": "DEELQEEIEKFWKQLEFGNEDSLEKLMDPNAEMRVGDHTLHGRDSIAKELRRRQEEQRVDIHSYKLSAHNGRVTVNIDATFNHNGNPDRKIQRASLEISNGKLKRMDVRDEQ", "assigned category": "N"}
